This section presents binders with their documented pIC50 values.
# assayTarget: HLA-DR2 (DRB1*0201 [sic]), purified from B-lymphoblastic cell line IWB (human)
# assayMethodText: competition with fluorescent HA 308-319 on purified HLA-DR2
API: returns pIC50 as number; meaning -log10 of concentration in mol/L.

A selection of reference data follows.
{"binder": "MHGDTPTLHEYMLDLQPETTDL (modifications not checked) [HPV16 E7 peptide 1-22, P03129 1-22]", "pIC50": 5.00}
{"binder": "CDSTLRLCVQSTHVDIRTLEDL (modifications not checked) [HPV16 E7 peptide 61-82, P03129 61-82]", "pIC50": 4.82}
{"binder": "DLYCYEQLNDSSEEEDEIDGPA (modifications not checked) [HPV16 E7 peptide 21-42, P03129 21-42]", "pIC50": 4.92}
{"binder": "RTLEDLLMGTLGIVCPICSQKP (modifications not checked) [HPV16 E7 peptide 77-98, P03129 77-98]", "pIC50": 4.66}
{"binder": "STHVDIRTLEDLLMGTLGIVCP (modifications not checked) [HPV16 E7 peptide 71-92, P03129 71-92]", "pIC50": 5.70}

Identify pIC50 associated with the binder PAGQAEPDRAHYNIVTFCCKCD (modifications not checked) [HPV16 E7 peptide 41-62, P03129 41-62]
4.30
